T1/2 monomeric values, listed per item
Molecular target: T1, monomeric hIL-4R (R&D Systems) (human, UniProt P24394 26-231)
T1 construct: Bought (R&D Systems); also called hIL-4R monomer
T1 sequence: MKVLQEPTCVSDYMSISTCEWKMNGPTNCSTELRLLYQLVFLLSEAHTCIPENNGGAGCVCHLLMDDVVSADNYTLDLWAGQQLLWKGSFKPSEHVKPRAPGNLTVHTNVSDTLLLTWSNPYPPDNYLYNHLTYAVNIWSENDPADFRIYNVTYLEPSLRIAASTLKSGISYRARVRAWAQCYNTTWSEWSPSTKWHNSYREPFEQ
Assay: SPR (BIAcore 2000); antibody captured, monomeric hIL-4R injected
Kindly answer with a numeric value in min, unit omitted.

Take a look at these entries with their results.
- VAK11D4-1 (antibody, V domains shown, Apparently tested with mouse constant region (anti-mouse IgG capture/detection)) VH: QVRLVESGGGVVQPGRSLRLSCVASGFTFRSYGMHWVRQAPGRGLEWVAVISYDGSQTFYVDSVKVRFTISRDNSNNTLYLEMNSLRVDDTAVYFCVKEGRSGSWFDPWGQGTLVAVSS VL: DIHMTQSPSSLSASVGDRVTITCRASQAINNYLAWFQQKPGRTPKSLIFATSSLQSGVPSRFSGSGSGTDFTLTISSLQPEDFATYYCQQYNSHPWTFGQGTKVEIK: 480
- VAB 15C8-17 (antibody, V domains shown, Apparently tested with mouse constant region (anti-mouse IgG capture/detection)) VH: QVQLVESGGGLVQPGGSLRLSCAVSGFTISDHYMSWIRQAPGKGLEWISYISSSGSKIYYADSVKGRFTISRDNAKNSLFLQMNSLRAEDTAVYYCARTRQLVGDYWGQGTLVTVSS VL: DIQLTQSPSFLSASVGDRVTITCWASQGISSYLAWYQQKPGKAPKLLIFAASTLQSGVPSRFSGSGSGTEFTLTISSLQPEDFATYYCQQLNSYPLTFGGGTKVEIR: 15
- VAB 16G1-1 (antibody, V domains shown, 403/405; 407/409 without saying which was assayed; Apparently tested with mouse constant region (anti-mouse IgG capture/detection)) VH: EVKLAESGGGLVQPGGSLRLSCAASGFTFSSHWMNWVRQAPGKGLEWVANIKQDGSDKYYVDSVKGRFTISRDNAKNSLYLQLNSLIAEDTAVYYCARDRGVRPPRGAFDIWGQGTMVTVSS VL: DIQMTQSPSSVSASVGDRVTITCRASQGISSWLAWYQQKPGKAPKLLIYAASSFQSGVPSRFSGSGSGTDFTLTISSLQPEDFATYFCQQANSFPLTFGGGTTVEIK: 15
- VAK7G8-5 (antibody, V domains shown, Apparently tested with mouse constant region (anti-mouse IgG capture/detection)) VH: QVRLVESGGGVVQPGGSLRLSCTASGFIFRSYGMHWVRQAPGRGLEWVAVISYDGSKTFYVDSVKVRFTISRDNSKNTLYLEMNSLRVDDTAVYFCVKEGRSGSWFDPWGQGTLVAVSS VL: DIHMTQSPSSLSASVGDRVTITCRASQAINNFLAWFQQKPGKTPKSLIFATSSLQSGVPSRFSGSGSGTDFTLTISSLQPEDFATYYCQQYNSHPWTFGQGTKVEIR: 480

Look at this binder and give its reported T1/2 monomeric. VX 3F7-6 (antibody, V domains shown, 395/397; 399/401 without saying which was assayed; Apparently tested with mouse constant region (anti-mouse IgG capture/detection)) VH: EVQLVESGGGLVQPGGSLRLSCAASGFTFSSFWMTWVRQAPGKGLEWVANIKQDGSEKYYVDSVKGRFTISRDNAKNSLYLQMNSLRAEDTAVYYCARDPGRTMVRGGIRYYYGMDVWGQGTTVTVSS VL: DIQMTQSPSSVSASVGDRVTISCRASQGVSSWLAWYQQKPGNAPKLLISAASSIQSGVPSRFSGSGSGTDFTLTISSLQPEDFATYYCQQANSFPLTFGGGTKVEIK
16
